Values compiled from a melting point compilation (Tetko et al.).

Recorded melting point values for a group of compounds are listed next.

O=C(O)CNC(=O)CC(F)(F)F	122 to 124 °C

Give the value of melting point reported for the following: Cc1nn(-c2ccc(F)cc2)c2ncc(C(=O)O)cc12
347 to 349 °C

Give the value of melting point reported for the following: O=C(O)C1(c2cccc(Br)c2)CCCC1
158 to 160 °C

Give the value of melting point reported for the following: NNc1ccc2ccccc2n1
147 to 151 °C

Give the value of melting point reported for the following: CCC(C)NC(=O)c1ccc(N)cc1 (configuration not stated)
101 to 104 °C

Give the value of melting point reported for the following: COc1cc2nc(-c3ccccc3)nc(Cl)c2cc1OC
132 to 134 °C
